- System: primary CLL cells
- ASSAY_TEXT: Cytotoxicity, TMRE flow cytometry viability, primary CLL cells (Example II.1)
- Type: cell-based
- PARTICULARS: Homo sapiens, CLL cell, 6 hours, TMRE positive cells normalized to control, ratio to PF670462, <1 = higher cytotoxicity than PF670462, read-out: Viability of cells, Compound of formula I (100 μM), relative to PF670462 (100 μM), CLL primary cells
// viability at 100 µM lookup, one value per entry
MEASURED_PARAMETER: viability at 100 µM (%)

>>> print(df.to_string())
                                 cpd_smiles  target_or_test_system  readout_value
0  Fc1ccc(-c2ncn(C3CCCC3)c2-c2ccnc3[nH]ccc23)cc1      primary CLL cells             33
1  Fc1ccc(-c2ncn(C3CCCCC3)c2-c2c(F)cnc3[nH]ccc23)cc1      primary CLL cells              8
2  Cc1nc(-c2ccc(F)cc2)c(-c2ccnc3[nH]ccc23)n1C1CCCCC1      primary CLL cells             35
3  Fc1ccc(-c2ncn(CC3CCCCC3)c2-c2ccnc3[nH]ccc23)cc1      primary CLL cells             15
4  Fc1ccc(-c2ncn(-c3ccccc3)c2-c2ccnc3[nH]ccc23)cc1      primary CLL cells             78
5  CS(=O)(=O)N1CCC(n2cnc(-c3ccc(F)cc3)c2-c2ccnc3[nH]ccc23)CC1      primary CLL cells             84
6  Fc1ccc(-c2nc(Cl)n(C3CCCCC3)c2-c2ccnc3[nH]ccc23)cc1      primary CLL cells              1

These measurements were taken from patent US11498920B2.
